assayed_target: MAP3K5A (Homo sapiens, UniProt Q99683)
Construct: purchased in-house DSF kinase panel (SGC-style construct names; the trailing letter is the construct ID)
Sequence (Q99683 659-951): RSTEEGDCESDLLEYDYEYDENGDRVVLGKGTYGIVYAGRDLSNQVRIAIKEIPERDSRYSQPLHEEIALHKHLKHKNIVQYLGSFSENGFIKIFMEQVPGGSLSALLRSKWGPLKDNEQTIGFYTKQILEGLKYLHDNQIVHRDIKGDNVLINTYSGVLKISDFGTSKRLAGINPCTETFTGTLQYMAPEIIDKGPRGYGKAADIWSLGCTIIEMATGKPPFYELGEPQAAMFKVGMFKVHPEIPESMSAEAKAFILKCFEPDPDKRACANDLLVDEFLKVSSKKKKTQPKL
experiment: DSF Tm panel
Type: binding
conditions_used: 10 μM compound
measured_metric: ΔTm at 10 µM (°C)

compound | ΔTm at 10 µM [°C]
Cc1cc(Cl)ccc1CNC(=O)Nc1ccc2cc1OCCOCCNc1ccn3ncc-2c3n1 | 1

1: O=C(NCc1ccccc1Cl)Nc1ccc2cc1OCCOCCNc1ccn3ncc-2c3n1
2: O=C(NCc1ccccc1)Nc1ccc2cc1OCCOCCNc1ccn3ncc-2c3n1
Could you please tell me which of these two has the higher ΔTm at 10 µM: 1 or 2 ? Reply with the label of the item you choose.
2

1: COc1cccc(CNC(=O)Nc2ccc3cc2OCCOCCNc2ccn4ncc-3c4n2)c1
2: C[C@H](NC(=O)Nc1ccc2cc1OCCOCCNc1ccn3ncc-2c3n1)c1ccccc1
Could you please tell me which of these two has the higher ΔTm at 10 µM: 1 or 2 ? Reply with the label of the item you choose.
1
(1: 1.5 °C, 2: 0.8 °C)

1: O=C(NCc1cccc(Cl)c1)Nc1ccc2cc1OCCOCCNc1ccn3ncc-2c3n1
2: COc1cc(CNC(=O)Nc2ccc3cc2OCCOCCNc2ccn4ncc-3c4n2)ccc1F
3: Cc1ccc(F)cc1CNC(=O)Nc1ccc2cc1OCCOCCNc1ccn3ncc-2c3n1
Sequence the entries by ΔTm at 10 µM, beginning with the highest number. Please, when replying, give the labels in the order that was requested.
2, 1, 3

A: O=C(NCc1ccc(Cl)cc1Cl)Nc1ccc2cc1OCCOCCNc1ccn3ncc-2c3n1
B: Cc1cc(Br)ccc1CNC(=O)Nc1ccc2cc1OCCOCCNc1ccn3ncc-2c3n1
// compare: A vs B , metric ΔTm at 10 µM, want the smaller Reply with the label of the item you choose.
B

====

assayed_target: CLK3A (Homo sapiens, UniProt P49761)
Construct: purchased in-house DSF kinase panel (SGC-style construct names; the trailing letter is the construct ID)
Sequence (P49761 127-484): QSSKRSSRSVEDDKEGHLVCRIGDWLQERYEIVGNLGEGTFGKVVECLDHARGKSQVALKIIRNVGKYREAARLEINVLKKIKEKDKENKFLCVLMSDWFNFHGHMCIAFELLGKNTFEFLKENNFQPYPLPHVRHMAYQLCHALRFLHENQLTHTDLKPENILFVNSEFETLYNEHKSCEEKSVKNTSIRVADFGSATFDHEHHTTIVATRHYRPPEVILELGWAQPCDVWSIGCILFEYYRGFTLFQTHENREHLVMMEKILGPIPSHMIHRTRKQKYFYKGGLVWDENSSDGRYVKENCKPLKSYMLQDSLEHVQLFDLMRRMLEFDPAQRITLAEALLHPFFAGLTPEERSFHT
experiment: DSF Tm panel
Type: binding
conditions_used: 10 μM compound
measured_metric: ΔTm at 10 µM (°C)

molecule | units_label | ΔTm at 10 µM
COc1ccc(CNC(=O)Nc2ccc3cc2OCCOCCNc2ccn4ncc-3c4n2)cc1 [compound 31] | °C | 0

a: C[C@H](NC(=O)Nc1ccc2cc1OCCOCCNc1ccn3ncc-2c3n1)c1ccccc1 [compound 34]
b: O=C(NCc1ccc(Cl)cc1Cl)Nc1ccc2cc1OCCOCCNc1ccn3ncc-2c3n1 [compound 20]
c: COc1ccc(CNC(=O)Nc2ccc3cc2OCCOCCNc2ccn4ncc-3c4n2)cc1F [compound 32]
Sequence the entries by ΔTm at 10 µM, beginning with the highest number. Please, when replying, give the labels in the order that was requested.
b, c, a

I: Cc1ccc(F)cc1CNC(=O)Nc1ccc2cc1OCCOCCNc1ccn3ncc-2c3n1 [compound 26]
II: COc1ccccc1CNC(=O)Nc1ccc2cc1OCCOCCNc1ccn3ncc-2c3n1 [compound 29]
Could you please tell me which of these two has the higher ΔTm at 10 µM: I or II ? Reply with the label of the item you choose.
II

====

assayed_target: CAMK2DA (Homo sapiens)
Construct: purchased in-house DSF kinase panel (SGC-style construct names; the trailing letter is the construct ID)
Sequence (Q13557 11-309): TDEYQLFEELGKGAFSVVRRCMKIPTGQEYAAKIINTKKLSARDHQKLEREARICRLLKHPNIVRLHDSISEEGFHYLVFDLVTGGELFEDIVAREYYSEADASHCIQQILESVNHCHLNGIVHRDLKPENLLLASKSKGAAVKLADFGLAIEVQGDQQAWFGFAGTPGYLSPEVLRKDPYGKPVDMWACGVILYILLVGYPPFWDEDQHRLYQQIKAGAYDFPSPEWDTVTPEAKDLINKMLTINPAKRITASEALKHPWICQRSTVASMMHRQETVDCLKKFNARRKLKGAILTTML
experiment: DSF Tm panel
Format: binding
conditions_used: 10 μM compound
measured_metric: ΔTm at 10 µM (°C)

Sample answers from the record:
compound | obs_value
COc1ccc(CNC(=O)Nc2ccc3cc2OCCOCCNc2ccn4ncc-3c4n2)cc1 | 2.8
CN1CCN(C(=O)Nc2ccc3cc2OCCOCCNc2ccn4ncc-3c4n2)CC1 | 0.5
COc1ccc(CNC(=O)Nc2ccc3cc2OCCOCCNc2ccn4ncc-3c4n2)cc1F | 2.7
O=C(NCc1ccccc1)Nc1ccc2cc1OCCOCCNc1ccn3ncc-2c3n1 | 0.2
O=C(NCc1cccc(Cl)c1)Nc1ccc2cc1OCCOCCNc1ccn3ncc-2c3n1 | 0.5
C[C@H](NC(=O)Nc1ccc2cc1OCCOCCNc1ccn3ncc-2c3n1)c1ccccc1 | 2.2
O=C(NCc1ccc(Cl)cc1Cl)Nc1ccc2cc1OCCOCCNc1ccn3ncc-2c3n1 | 0.9
COc1cc(CNC(=O)Nc2ccc3cc2OCCOCCNc2ccn4ncc-3c4n2)ccc1F | 2.4
Cc1cc(Cl)ccc1CNC(=O)Nc1ccc2cc1OCCOCCNc1ccn3ncc-2c3n1 | 1.7
Cc1cc(Br)ccc1CNC(=O)Nc1ccc2cc1OCCOCCNc1ccn3ncc-2c3n1 | 2.2

a: O=C(NCc1ccc(C(F)(F)F)cc1)Nc1ccc2cc1OCCOCCNc1ccn3ncc-2c3n1
b: O=C(NCc1ccccc1Cl)Nc1ccc2cc1OCCOCCNc1ccn3ncc-2c3n1
Could you please tell me which of these two has the higher ΔTm at 10 µM: a or b ? Reply with the label of the item you choose.
a
(a: 2.7 °C, b: 0.4 °C)

====

assayed_target: CDK2A (Homo sapiens, UniProt P24941)
Construct: purchased in-house DSF kinase panel (SGC-style construct names; the trailing letter is the construct ID)
experiment: DSF Tm panel
Format: binding
conditions_used: 10 μM compound
measured_metric: ΔTm at 10 µM (°C)

compound | ΔTm at 10 µM (°C)
O=C(NCc1ccc(C(F)(F)F)cc1)Nc1ccc2cc1OCCOCCNc1ccn3ncc-2c3n1 | 3.3
COc1cc(CNC(=O)Nc2ccc3cc2OCCOCCNc2ccn4ncc-3c4n2)ccc1F | 2.7
O=C(NCc1ccccc1C(F)(F)F)Nc1ccc2cc1OCCOCCNc1ccn3ncc-2c3n1 | 1.9

a: O=C(NCc1ccccc1)Nc1ccc2cc1OCCOCCNc1ccn3ncc-2c3n1
b: Cc1ccc(F)cc1CNC(=O)Nc1ccc2cc1OCCOCCNc1ccn3ncc-2c3n1
c: O=C(NCc1ccc(Cl)cc1F)Nc1ccc2cc1OCCOCCNc1ccn3ncc-2c3n1
d: C[C@H](NC(=O)Nc1ccc2cc1OCCOCCNc1ccn3ncc-2c3n1)c1ccccc1
e: Cc1cc(Br)ccc1CNC(=O)Nc1ccc2cc1OCCOCCNc1ccn3ncc-2c3n1
Let's sort these by ΔTm at 10 µM, smallest first. Go ahead? Please, when replying, give the labels in the order that was requested.
d, e, b, a, c

====

assayed_target: CAMKK2B (Homo sapiens, UniProt Q96RR4)
Construct: purchased in-house DSF kinase panel (SGC-style construct names; the trailing letter is the construct ID)
Sequence (Q96RR4 161-449): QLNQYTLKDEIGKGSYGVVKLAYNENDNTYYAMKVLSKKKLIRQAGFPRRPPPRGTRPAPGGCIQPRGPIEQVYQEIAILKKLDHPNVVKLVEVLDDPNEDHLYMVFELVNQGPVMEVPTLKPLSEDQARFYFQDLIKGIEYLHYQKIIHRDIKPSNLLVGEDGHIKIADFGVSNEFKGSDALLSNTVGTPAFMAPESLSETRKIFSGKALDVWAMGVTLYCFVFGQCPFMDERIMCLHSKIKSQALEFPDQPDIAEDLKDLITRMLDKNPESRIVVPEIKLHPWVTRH
experiment: DSF Tm panel
Assay type: binding
conditions_used: 10 μM compound
measured_metric: ΔTm at 10 µM (°C)

Sample answers from the record:
compound | units_label | ΔTm at 10 µM
C[C@H](NC(=O)Nc1ccc2cc1OCCOCCNc1ccn3ncc-2c3n1)c1ccccc1 | °C | 0.6
CN1CCN(C(=O)Nc2ccc3cc2OCCOCCNc2ccn4ncc-3c4n2)CC1 | °C | 2.9
O=C(NCc1ccc(C(F)(F)F)cc1)Nc1ccc2cc1OCCOCCNc1ccn3ncc-2c3n1 | °C | 1.8
COc1cc(CNC(=O)Nc2ccc3cc2OCCOCCNc2ccn4ncc-3c4n2)ccc1F | °C | 3.2
O=C(NCc1cccc(Cl)c1)Nc1ccc2cc1OCCOCCNc1ccn3ncc-2c3n1 | °C | 3.1
Cc1cc(Br)ccc1CNC(=O)Nc1ccc2cc1OCCOCCNc1ccn3ncc-2c3n1 | °C | 0.7

A: COc1ccccc1CNC(=O)Nc1ccc2cc1OCCOCCNc1ccn3ncc-2c3n1
B: O=C(NCc1ccc(Cl)cc1F)Nc1ccc2cc1OCCOCCNc1ccn3ncc-2c3n1
C: Cc1ccc(F)cc1CNC(=O)Nc1ccc2cc1OCCOCCNc1ccn3ncc-2c3n1
Let's sort these by ΔTm at 10 µM, smallest first. Go ahead? Please, when replying, give the labels in the order that was requested.
C, A, B
(C: 0.9 °C, A: 1.5 °C, B: 3.5 °C)

P: O=C(NCc1ccc(Cl)cc1)Nc1ccc2cc1OCCOCCNc1ccn3ncc-2c3n1
Q: COc1ccc(CNC(=O)Nc2ccc3cc2OCCOCCNc2ccn4ncc-3c4n2)cc1F
R: O=C(NCc1ccc(Cl)cc1Cl)Nc1ccc2cc1OCCOCCNc1ccn3ncc-2c3n1
Sequence the entries by ΔTm at 10 µM, beginning with the highest number. Please, when replying, give the labels in the order that was requested.
P, Q, R
(P: 3.4 °C, Q: 1.8 °C, R: 1.2 °C)

a: O=C(NCc1ccccc1Cl)Nc1ccc2cc1OCCOCCNc1ccn3ncc-2c3n1
b: O=C(NCc1ccccc1C(F)(F)F)Nc1ccc2cc1OCCOCCNc1ccn3ncc-2c3n1
// compare: a vs b , metric ΔTm at 10 µM, want the smaller Reply with the label of the item you choose.
b

a: O=C(NCc1ccccc1)Nc1ccc2cc1OCCOCCNc1ccn3ncc-2c3n1
b: COc1ccc(CNC(=O)Nc2ccc3cc2OCCOCCNc2ccn4ncc-3c4n2)cc1
Could you please tell me which of these two has the higher ΔTm at 10 µM: a or b ? Reply with the label of the item you choose.
a
(a: 3.8 °C, b: 1.8 °C)

====

assayed_target: WNK1A (Homo sapiens, UniProt Q9H4A3)
Construct: purchased in-house DSF kinase panel (SGC-style construct names; the trailing letter is the construct ID)
Sequence (Q9H4A3 206-483): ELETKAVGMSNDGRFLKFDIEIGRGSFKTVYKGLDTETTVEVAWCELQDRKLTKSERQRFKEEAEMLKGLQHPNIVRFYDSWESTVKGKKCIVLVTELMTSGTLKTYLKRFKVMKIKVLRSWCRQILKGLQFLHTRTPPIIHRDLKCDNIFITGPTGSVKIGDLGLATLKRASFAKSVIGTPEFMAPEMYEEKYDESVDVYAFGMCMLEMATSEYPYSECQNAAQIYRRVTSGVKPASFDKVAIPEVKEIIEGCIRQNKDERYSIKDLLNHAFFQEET
experiment: DSF Tm panel
Type: binding
conditions_used: 10 μM compound
measured_metric: ΔTm at 10 µM (°C)

Sample answers from the record:
molecule | obs_value
O=C(NCc1ccc(Cl)cc1Cl)Nc1ccc2cc1OCCOCCNc1ccn3ncc-2c3n1 [compound 20] | 0.4
CN1CCN(C(=O)Nc2ccc3cc2OCCOCCNc2ccn4ncc-3c4n2)CC1 [compound 35] | 0.4

a: O=C(NCc1ccccc1Cl)Nc1ccc2cc1OCCOCCNc1ccn3ncc-2c3n1 [compound 17]
b: O=C(NCc1ccc(Cl)cc1)Nc1ccc2cc1OCCOCCNc1ccn3ncc-2c3n1 [compound 19]
c: Cc1cc(Cl)ccc1CNC(=O)Nc1ccc2cc1OCCOCCNc1ccn3ncc-2c3n1 [compound 23]
Sequence the entries by ΔTm at 10 µM, beginning with the highest number. Please, when replying, give the labels in the order that was requested.
c, a, b
(c: 1.6 °C, a: 0.5 °C, b: -0.2 °C)

1: O=C(NCc1cccc(Cl)c1)Nc1ccc2cc1OCCOCCNc1ccn3ncc-2c3n1 [compound 18]
2: O=C(NCc1ccccc1)Nc1ccc2cc1OCCOCCNc1ccn3ncc-2c3n1 [compound 16]
// compare: 1 vs 2 , metric ΔTm at 10 µM, want the smaller Reply with the label of the item you choose.
2
(2: 0 °C, 1: 0.09 °C)
